Values were extracted from patent US11471537B2.

# ASSAYED SYSTEM: insulin receptor A (Homo sapiens, UniProt P06213)
# Sequence (P06213 28-1370 isoform P06213-2 limits assumed): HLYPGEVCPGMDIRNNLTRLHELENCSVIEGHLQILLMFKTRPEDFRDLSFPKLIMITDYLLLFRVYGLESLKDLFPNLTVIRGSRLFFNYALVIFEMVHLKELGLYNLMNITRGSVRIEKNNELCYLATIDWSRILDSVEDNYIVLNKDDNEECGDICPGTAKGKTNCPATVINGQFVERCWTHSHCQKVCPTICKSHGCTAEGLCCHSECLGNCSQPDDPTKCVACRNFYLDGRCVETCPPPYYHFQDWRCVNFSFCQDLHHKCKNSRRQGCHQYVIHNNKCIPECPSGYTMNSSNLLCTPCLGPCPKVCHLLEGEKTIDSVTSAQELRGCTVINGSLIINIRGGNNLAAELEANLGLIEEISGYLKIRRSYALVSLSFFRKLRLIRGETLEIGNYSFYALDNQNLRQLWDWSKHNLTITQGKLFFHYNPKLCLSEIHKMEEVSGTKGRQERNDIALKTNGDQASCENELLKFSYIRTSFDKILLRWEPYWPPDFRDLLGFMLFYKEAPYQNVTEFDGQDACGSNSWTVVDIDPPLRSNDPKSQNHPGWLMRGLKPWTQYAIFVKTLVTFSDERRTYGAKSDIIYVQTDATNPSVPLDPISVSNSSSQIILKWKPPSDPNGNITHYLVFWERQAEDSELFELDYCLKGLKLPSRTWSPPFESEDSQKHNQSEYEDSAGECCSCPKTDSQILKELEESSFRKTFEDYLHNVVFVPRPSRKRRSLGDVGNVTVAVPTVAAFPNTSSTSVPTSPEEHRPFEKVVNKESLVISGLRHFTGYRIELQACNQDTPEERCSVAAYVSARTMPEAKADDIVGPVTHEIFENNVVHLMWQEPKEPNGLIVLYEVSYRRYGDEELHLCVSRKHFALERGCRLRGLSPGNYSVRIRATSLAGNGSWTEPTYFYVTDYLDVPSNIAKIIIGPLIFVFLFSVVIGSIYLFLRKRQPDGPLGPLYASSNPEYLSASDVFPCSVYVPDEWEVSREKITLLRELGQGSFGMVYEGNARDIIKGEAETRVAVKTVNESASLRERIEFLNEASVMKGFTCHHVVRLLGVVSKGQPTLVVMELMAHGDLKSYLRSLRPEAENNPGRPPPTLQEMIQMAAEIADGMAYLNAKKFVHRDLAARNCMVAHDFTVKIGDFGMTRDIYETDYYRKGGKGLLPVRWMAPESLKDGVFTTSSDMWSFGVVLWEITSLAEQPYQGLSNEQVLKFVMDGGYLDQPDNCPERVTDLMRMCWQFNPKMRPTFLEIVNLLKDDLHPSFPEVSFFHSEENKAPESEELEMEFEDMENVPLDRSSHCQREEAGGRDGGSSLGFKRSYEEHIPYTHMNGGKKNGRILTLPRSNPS
# Sequence (P06213 763-1382 partner limits assumed): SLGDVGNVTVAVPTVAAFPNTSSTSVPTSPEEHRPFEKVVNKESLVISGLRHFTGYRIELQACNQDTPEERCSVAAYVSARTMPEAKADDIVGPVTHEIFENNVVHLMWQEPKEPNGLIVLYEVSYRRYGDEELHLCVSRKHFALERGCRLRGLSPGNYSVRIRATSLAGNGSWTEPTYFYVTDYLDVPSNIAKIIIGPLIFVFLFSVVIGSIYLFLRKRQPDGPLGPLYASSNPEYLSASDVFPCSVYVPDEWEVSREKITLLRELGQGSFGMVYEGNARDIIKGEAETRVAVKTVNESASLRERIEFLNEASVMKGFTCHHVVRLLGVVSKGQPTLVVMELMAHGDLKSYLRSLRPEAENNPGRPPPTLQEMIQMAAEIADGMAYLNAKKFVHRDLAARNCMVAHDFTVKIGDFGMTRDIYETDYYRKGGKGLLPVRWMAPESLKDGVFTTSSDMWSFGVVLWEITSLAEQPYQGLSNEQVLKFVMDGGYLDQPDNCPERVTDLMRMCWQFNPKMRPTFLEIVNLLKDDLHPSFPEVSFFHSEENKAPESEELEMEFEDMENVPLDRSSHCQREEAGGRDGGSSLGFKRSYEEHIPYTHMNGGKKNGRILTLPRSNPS
# EXPERIMENT NOTES: Insulin receptor affinity
# Assay type: binding
# APPLIED CONDITIONS: relative to affinity of human insulin for insulin receptor A (100%)
Criterion: Insulin receptor affinity [IC50 relative to HI (%)] Mean Value strictly under 4%. Met: T. Not met: F.

Some entries whose results are on file:
substance="A14E, A21G, A22(GQAPGQAPGQAPGQEP)6-GQAP, A122K^, A123P, B25H, B29R, desB30 human insulin/(227A, 234A, 235K, 297E, 315Q, 384Q, des447 hIgG4-Fc(228-447))4-[bis[2-[(2-acetyl)amino]ethyl]amino]-4-oxo-butanoyl Conjugate [Example 5.20]" discrete_label=F
substance="A14E, A21G, A22(GQAPGQAPGQEP)6-GQAP, A98K^, A99P, B3Q, B25H, B29R, desB30 human insulin/(227A, 234A, 235K, 297E, 315Q, 3840, des447 hIgG4-Fc(228-447))4-[bis[2-[(2-acetyl)amino]ethyl]amino]-4-oxo-butanoyl Conjugate [Example 5.13]" discrete_label=F
substance="A14E, A21G, A22(GQAPGQAPGQEP)6-GQAP, A98K^, A99P, B3Q, B25H, B29R, desB30 human insulin/(227A, 234A, 235K, 297E, 315Q, 384Q, des447 hIgG4-Fc(228-447))4-[bis[2-[(2-acetyl)amino]ethyl]carbamoylamino]butanoyl Conjugate [Example 5.24]" discrete_label=F

Enquiry: State whether 4% exceeds Insulin receptor affinity [IC50 relative to HI (%)] Mean Value recorded for A14E, A21G, A22(GQAPGQAPGQEP)6-GQAP, A98K^, A99P, B3Q, B25H, B29R, desB30 human insulin/(227A, 234A, 235K hIgG4-Fc(228-447))4-[bis[2-[(2-acetyl)amino]ethyl]amino]-4-oxo-butanoyl Conjugate [Example 5.5] .
Return: T

Enquiry: State whether 4% exceeds Insulin receptor affinity [IC50 relative to HI (%)] Mean Value recorded for A14E, A21G, A22(GQAPGQEP)6, A70K^, A71P, B25H, B29R, desB30 human insulin/(227A, 234A, 235K hIgG4-Fc(228-447))4-[bis[2-[(2-acetyl)amino]ethyl]amino]-4-oxo-butanoyl Conjugate [Example 5.9] .
Return: T

Enquiry: State whether 4% exceeds Insulin receptor affinity [IC50 relative to HI (%)] Mean Value recorded for A14E, B(−78K^), B(−77P), B(−1)(GQAPGQAPGQEP)6-GQAP, B3Q, B25H, B29R, desB30 human insulin/(227A, 234A, 235K hIgG4-Fc(228-447))4-[bis[2-[(2-acetyl)amino]ethyl]amino]-4-oxo-butanoyl Conjugate [Example 5.3] .
Return: T

Enquiry: State whether 4% exceeds Insulin receptor affinity [IC50 relative to HI (%)] Mean Value recorded for A14E, A21G, A22(GQAPGQEP)6, A70K^, A71P, B25H, B29R, desB30 human insulin/(227A, 234A, 235K, 297E, 315Q, 384Q, des447 hIgG4-Fc(228-447))4-[bis[2-[(2-acetyl)amino]ethyl]amino]-4-oxo-butanoyl Conjugate [Example 5.14] .
Return: F

* * *

# Test system: Sprague-Dawley rats
# EXPERIMENT NOTES: PD studies: blood glucose after subcutaneous dosing
# Type: in vivo
# APPLIED CONDITIONS: sc, dose 30 nmol/kg, time 4 days
Each record here notes measured Average blood glucose.
Number in mM, nothing else.

Please review the entries below; each comes with its answer.
substance="A14E, A21G, A22(GQAPGQAPGQEP)6-GQAP, A98K^, A99P, B3Q, B25H, B29R, desB30 human insulin/(227A, 234A, 235K, 297E, 315Q, 3840, des447 hIgG4-Fc(228-447))4-[bis[2-[(2-acetyl)amino]ethyl]amino]-4-oxo-butanoyl Conjugate [Example 5.13]" assayed_system="Sprague-Dawley rats" measured_property="Average blood glucose" readout_number=5.676
substance="A14E, A21G, A22(GQAPGQEP)6, A70K^, A71P, B25H, B29R, desB30 human insulin/(227A, 234A, 235K hIgG4-Fc(228-447))4-[bis[2-[(2-acetyl)amino]ethyl]amino]-4-oxo-butanoyl Conjugate [Example 5.9]" assayed_system="Sprague-Dawley rats" measured_property="Average blood glucose" readout_number=3.734
substance="A14E, A21G, A22(GQAPGQAPGQEP)6-GQAP, A98K^, A99P, B3Q, B25H, B29R, desB30 human insulin/(227A, 234A, 235K, 297E, 315Q, 384Q, des447 hIgG4-Fc(228-447))4-[bis[2-[(2-acetyl)amino]ethyl]carbamoylamino]butanoyl Conjugate [Example 5.24]" assayed_system="Sprague-Dawley rats" measured_property="Average blood glucose" readout_number=6.272
substance="A14E, A21G, A22(GQAPGQAPGQEP)6-GQAP, A98K^, A99P, B3Q, B25H, B29R, desB30 human insulin/(227A, 234A, 235K hIgG4-Fc(228-447))4-[bis[2-[(2-acetyl)amino]ethyl]amino]-4-oxo-butanoyl Conjugate [Example 5.5]" assayed_system="Sprague-Dawley rats" measured_property="Average blood glucose" readout_number=4.764

Enquiry: Under Sprague-Dawley rats: Average blood glucose value of A14E, A21G, A22(GQAPGQEP)6, A70K^, A71P, B25H, B29R, desB30 human insulin/(227A, 234A, 235K, 297E, 315Q, 384Q, des447 hIgG4-Fc(228-447))4-[bis[2-[(2-acetyl)amino]ethyl]amino]-4-oxo-butanoyl Conjugate [Example 5.14] ?
Return: 4.304
